Ref: patent US10294202B2

Recorded Plant response rating, Crabgrass, Large by entry
test system: crabgrass, large; assay: Test A pre-/postemergence herbicide test; type: in vivo, Digitaria sanguinalis; details: Postemergence, 125 g ai/ha; 0 to 100 scale, 0 is no effect, 100 is complete control
Text: […]

These recorded examples may help you get a feel for the data.
O=C1NCC(c2ccc(C(F)(F)F)c(Cl)c2)C1C(=O)Nc1ccccc1C(F)(F)F (racemic) :: 0
COc1ccc(C2CNC(=O)C2C(=O)Nc2ccccc2F)cc1F (racemic) :: 50
O=C1NCC(c2ccc(C(F)(F)F)c(Cl)c2)C1C(=O)Nc1ccccc1F (racemic) :: 0

Req: Returns the measured Plant response rating, Crabgrass, Large for the input compound. Input: O=C1NCC(c2ccc(C(F)(F)F)c(F)c2)C1C(=O)Nc1ccccc1C(F)(F)F (racemic)
Resp: 50

Req: Sample O=C1NCC(c2ccc(Cl)c(C(F)(F)F)c2)C1C(=O)Nc1ccccc1C(F)(F)F (racemic) — what was its Plant response rating, Crabgrass, Large?
Resp: 60

Req: Which value of Plant response rating, Crabgrass, Large has been reported for O=C1NCC(c2ccc(C(F)(F)F)nc2)C1C(=O)Nc1ccccc1F (racemic) in the records?
Resp: 70

====

Measured Plant response rating, Rice by item
system: rice; assay: Test B flooded paddy test; assay type: in vivo, Oryza sativa; conditions: 1000 g ai/ha, Flood; scale of 0 to 100 where 0 is no effect and 100 is complete control
The answer should be a number; do not append a unit.

O=C1NCC(c2ccc(-c3ccccc3C(F)(F)F)cc2)C1C(=O)Nc1cccc(F)c1F (stereo not shown) :: 0
CC(C)(C)c1cccc(C2CNC(=O)C2C(=O)Nc2cccc(F)c2F)c1 (racemic) :: 15
O=C1NCC(c2ccc(C(F)(F)F)c(F)c2)C1C(=O)Nc1cccc(F)c1F (racemic) :: 0

Req: Item under review: COc1ccc(C2CNC(=O)C2C(=O)Nc2ccccc2F)cc1F (racemic) . Reported Plant response rating, Rice?
Resp: 10

Req: What does the record list as Plant response rating, Rice for O=C1NCC(c2ccc(F)c(F)c2)C1C(=O)Nc1cccnc1F (racemic) ?
Resp: 10

Req: Any idea what Plant response rating, Rice was measured for O=C1NCC(c2ccc(C(F)(F)F)c(Cl)c2)C1C(=O)Nc1cccc(F)c1F (racemic) ?
Resp: 0

Req: Suppose we examine the molecule O=C1NCC(c2cccc(C(F)(F)F)c2)C1C(=O)Nc1cccc(F)c1F (stereo not shown) ; what Plant response rating, Rice value has been reported?
Resp: 10

====

system: blackgrass; assay: Test C pre-/postemergence herbicide test; type: in vivo, Alopecurus myosuroides; conditions: Preemergence, 125 g ai/ha; scale 0 to 100 (0 no effect, 100 complete control)
Values of Plant response rating, Blackgrass greater than or equal to 60 map to Yes; values below map to No.

Worked examples follow.
O=C1NCC(c2ccc(C(F)(F)F)nc2)C1C(=O)Nc1ccccc1F (racemic) :: No
O=C1NCC(c2cccc(Br)c2)C1C(=O)Nc1ccccc1F (stereo not shown) :: No
CN1CC(c2cccc(C(F)(F)F)c2)C(C(=O)Nc2ccccc2F)C1=O (stereo not shown) :: Yes
Cc1ccccc1NC(=O)C1C(=O)NCC1c1cc(F)c(F)c(F)c1 (racemic) :: No
O=C1NCC(c2ccc3c(c2)OC(F)(F)O3)C1C(=O)Nc1cccc(F)c1F (stereo not shown) :: Yes

Req: Hi team, for O=C(Nc1ccccc1F)C1C(=S)NCC1c1cccc(C(F)(F)F)c1 (stereo not shown) , is the recorded Plant response rating, Blackgrass at or above 60?
Resp: Yes

Req: Please indicate if the recorded Plant response rating, Blackgrass for O=C1NCC(c2ccc(C(F)(F)F)nc2)C1C(=O)Nc1cccc(F)c1F (racemic) meets or exceeds 60.
Resp: No
